protocol: Phase 1 food effect study, 100 mg tablet fed vs fasted
Assay type: in vivo, human
condition.info: both sexes, human, plasma, oral, 100 mg, 1 × 100 mg tablet, fasted; read-out: GLSM Cmax
assay.metric: Cmax (ng/mL)
// note: answer is a bare numeric in ng/mL

Asked: Complete the entry with Cmax for C[C@@H]1[C@H](c2ccccc2)C[C@H](NC(=O)c2cnc3c(c2)C[C@@]2(C3)C(=O)Nc3ncccc32)C(=O)N1CC(F)(F)F [ubrogepant]
Given back: 336

====

protocol: Phase 1 hepatic impairment PK study, single 100 mg dose
Format: in vivo, human
condition.info: both sexes, human, plasma, po, 100 mg, 100 mg single oral dose; moderate hepatic impairment; read-out: AUC0-t, mean ±SD
assay.metric: AUC(0-t) (ng·h/mL)
// note: answer is a bare numeric in ng·h/mL

Asked: Complete the entry with AUC(0-t) for C[C@@H]1[C@H](c2ccccc2)C[C@H](NC(=O)c2cnc3c(c2)C[C@@]2(C3)C(=O)Nc3ncccc32)C(=O)N1CC(F)(F)F
Given back: 2780

====

protocol: Study B: drug interaction PK with rifampin
Format: in vivo, human
condition.info: human, plasma, oral, 100 mg, ubrogepant 100 mg alone; read-out: AUC0-t, mean (SD)
assay.metric: AUC(0-t)

Asked: Complete the entry with AUC(0-t) for C[C@@H]1[C@H](c2ccccc2)C[C@H](NC(=O)c2cnc3c(c2)C[C@@]2(C3)C(=O)Nc3ncccc32)C(=O)N1CC(F)(F)F
Given back: 1880 ng·h/mL

====

protocol: Phase 1 hepatic impairment PK study, single 100 mg dose
Format: in vivo, human
condition.info: both sexes, human, plasma, po, 100 mg, 100 mg single oral dose; mild hepatic impairment; read-out: AUC0-inf, mean ±SD
assay.metric: AUC(0-inf)
Note to self: number, then unit, no commentary.

Asked: Complete the entry with AUC(0-inf) for C[C@@H]1[C@H](c2ccccc2)C[C@H](NC(=O)c2cnc3c(c2)C[C@@]2(C3)C(=O)Nc3ncccc32)C(=O)N1CC(F)(F)F [ubrogepant]
Given back: 1760 ng·h/mL

====

protocol: Study B: drug interaction PK with rifampin
Format: in vivo, human
condition.info: human, plasma, oral, rifampin 600 mg in combination with ubrogepant 100 mg; read-out: Geometric LSM AUC0-∞, Test
assay.metric: AUC(0-inf) (ng·h/mL)
// note: answer is a bare numeric in ng·h/mL

Asked: Complete the entry with AUC(0-inf) for C[C@@H]1[C@H](c2ccccc2)C[C@H](NC(=O)c2cnc3c(c2)C[C@@]2(C3)C(=O)Nc3ncccc32)C(=O)N1CC(F)(F)F [ubrogepant]
Given back: 379

====

protocol: Study B: drug interaction PK with rifampin
Format: in vivo, human
condition.info: human, plasma, oral, 100 mg; read-out: Vz/F
assay.metric: Vd/F (L)
// note: answer is a bare numeric in L

Asked: Complete the entry with Vd/F for C[C@@H]1[C@H](c2ccccc2)C[C@H](NC(=O)c2cnc3c(c2)C[C@@]2(C3)C(=O)Nc3ncccc32)C(=O)N1CC(F)(F)F [ubrogepant]
Given back: 390

====

protocol: Phase 1 food effect study, 100 mg tablet fed vs fasted
Type: in vivo, human
condition.info: both sexes, human, plasma, oral, 100 mg, 1 × 100 mg tablet, fasted; read-out: GLSM AUC0-inf
assay.metric: AUC(0-inf)

Asked: Complete the entry with AUC(0-inf) for C[C@@H]1[C@H](c2ccccc2)C[C@H](NC(=O)c2cnc3c(c2)C[C@@]2(C3)C(=O)Nc3ncccc32)C(=O)N1CC(F)(F)F [ubrogepant]
Given back: 1370 ng·h/mL

Data origin: patent US20240180883A1
